assay: BET inhibitor-based combinations targeting novel dependencies in MECOM-rearranged (r) AML: MV-4-11 cell line (AID 2202233); settings: MV-4-11 AML viability, CellTiter-Glo luminescence, 48 h; series mostly up to 46 µM; note: nearly all actives have a fitted effect of over 45% in size; note: potency is the fitted concentration of half-maximal effect
Results filed as inconclusive are left out. Active and inactive are the calls of the source. Calls come from the whole dose curve; as a rule, active = well fitted inhibition curve with a large enough effect; inconclusive = small, poorly fitted or top-dose-only effect; inactive = no such curve, though single readings can be large or run the other way.
measured.attribute: Potency

- compound: "Cc1ccc(NS(=O)(=O)c2cccc(C#N)c2)c2[nH]cc(C#N)c12"
  measured.attribute: "Potency"
  assay.result: "0.296 µM (active)"
- compound: "CC1(C)O[C@@H]2C[C@H]3[C@@H]4CCC5=CC(=O)C=C[C@]5(C)[C@H]4[C@@H](O)C[C@]3(C)[C@]2(C(=O)CO)O1"
  measured.attribute: "Potency"
  assay.result: "inactive"
- compound: "CC1(N)CCN(c2cnc(-c3cccc(Cl)c3Cl)c(N)n2)CC1"
  measured.attribute: "Potency"
  assay.result: "2.88 µM (active)"
- compound: "O=C(NCc1ccccc1)[C@H](Cc1ccccc1)NC(=O)[C@H]1O[C@@H]1C(=O)NCCc1ccc(O)cc1"
  measured.attribute: "Potency"
  assay.result: "23.5 µM (active)"
- compound: "CC(C)(O)c1coc(S(=O)(=O)NC(=O)Nc2c3c(cc4c2CCC4)CCC3)c1"
  measured.attribute: "Potency"
  assay.result: "inactive"

### Prompt Look at this compound and give its reported Potency. Cc1cnc(Nc2ccc(CN3CCOCC3)cc2)nc1Nc1cccc(S(=O)(=O)NC(C)(C)C)c1
### Response 0.417 µM (active)

### Prompt Report Potency for CC(C)(C)NC(=O)c1cncn1C1CCN(c2ccc(-c3nnc(C(F)(F)F)o3)cn2)CC1 please.
### Response 5.25 µM (active)

### Prompt Query: Potency; subject: COc1c(Nc2ncc(Cl)c(N[C@H]3[C@H](C(N)=O)[C@@H]4C=C[C@@H]3C4)n2)ccc2c1CCC(N1CCOCC1)CC2 (stereo partly drawn)
### Response 0.525 µM (active)

---

molecular target: Retinaldehyde dehydrogenase 3 (Homo sapiens) (UniProt P47895); test: qHTS for Inhibitors of the Aldehyde Dehydrogenase Family (ALDH1A3) Primary screen (AID 2061315); conditions: ALDH inhibition qHTS; series mostly up to 56 µM
Records with an inconclusive call do not appear. Activity calls are given as the source filed them. Calls follow the shape of the dose curve; as a rule, active = well fitted inhibition curve with a large enough effect; inconclusive = small, poorly fitted or top-dose-only effect; inactive = no such curve, though single readings can be large or run the other way.
measured.attribute: activity change, negative = inhibition

- molecule: "COc1cc(F)c(S(=O)(=O)N2CCN(S(=O)(=O)c3ccc4c(c3)OCCO4)CC2)c(F)c1"
  target: "Retinaldehyde dehydrogenase 3 (Homo sapiens) (UniProt P47895)"
  activity change, negative = inhibition: "inactive"
- molecule: "O=S(=O)(Nc1nc(-c2ccccc2C(F)(F)F)nc2ccccc12)c1ccc(Br)cc1"
  target: "Retinaldehyde dehydrogenase 3 (Homo sapiens) (UniProt P47895)"
  activity change, negative = inhibition: "inactive"
- molecule: "COc1cc(F)c(S(=O)(=O)N2CCCN(S(=O)(=O)c3cccc(N)c3)CC2)c(F)c1"
  target: "Retinaldehyde dehydrogenase 3 (Homo sapiens) (UniProt P47895)"
  activity change, negative = inhibition: "inactive"
- molecule: "Cc1ccnc(NC(=S)N2CCCc3ccc(C(F)(F)F)cc32)c1"
  target: "Retinaldehyde dehydrogenase 3 (Homo sapiens) (UniProt P47895)"
  activity change, negative = inhibition: "inactive"
- molecule: "O=C1Nc2ccccc2C1Cc1cc(Cl)c(O)c(Cl)c1 (stereo unspecified)"
  target: "Retinaldehyde dehydrogenase 3 (Homo sapiens) (UniProt P47895)"
  activity change, negative = inhibition: "inactive"
- molecule: "Cc1ccc(-c2cc(C(=O)O)c3cccc(C)c3n2)cc1C"
  target: "Retinaldehyde dehydrogenase 3 (Homo sapiens) (UniProt P47895)"
  activity change, negative = inhibition: "inactive"
- molecule: "Cc1cnc(-c2ccccc2C(C)C)nc1NCc1ccc(-c2ccnc(C(F)(F)F)c2)cc1"
  target: "Retinaldehyde dehydrogenase 3 (Homo sapiens) (UniProt P47895)"
  activity change, negative = inhibition: "inactive"
- molecule: "N[C@@H](Cc1ccc(OS(=O)(=O)c2cccnc2)cc1)C(=O)N1CCN(c2ccccc2)CC1"
  target: "Retinaldehyde dehydrogenase 3 (Homo sapiens) (UniProt P47895)"
  activity change, negative = inhibition: "inactive"

### Prompt Entry under review: Cc1cccc(CNc2ccnc(-c3cccc(C(F)(F)F)c3)n2)c1 . Reported activity change, negative = inhibition?
### Response inactive

### Prompt Quick one: activity change, negative = inhibition for O=C(NC1CCCc2c1cnn2CCO)c1ccccn1 (stereo unspecified) ?
### Response inactive
